- System: SK-MEL-5
- assay: Growth inhibition of human SK-MEL-5 cells assessed as cell growth at 10 uM incubated for 48 hrs by sulforhodamine B assay relative to control
- Format: functional
- condition_set: SK-MEL-5, 48 h, read-out: Activity
measured_endpoint: growth at 10 µM (%)
Write down the numeric answer in % and omit the unit.

Study these solved cases before continuing.
Cc1cccc(Nc2ncnc3oc(C)c(C(=O)NCCO)c23)c1	94.6
CCCNC(=O)c1c(C)oc2ncnc(Nc3cccc(Cl)c3)c12	89.9
Cc1oc2ncnc(Nc3cccc(Cl)c3)c2c1CO	87.9

Test system SK-MEL-5; read-out growth at 10 µM; what value for `Cc1oc2ncnc(Nc3ccc(OCc4cccc(F)c4)c(Cl)c3)c2c1C(=O)NCCO` ?
73.1

Try the molecule `Cc1oc2ncnc(Nc3ccccc3)c2c1C(=O)NCCO`
97.5

Try the molecule `CCOC(=O)c1c(C)oc2ncnc(Nc3ccc(F)cc3)c12`
102

----------
- Test system: TK-10
- assay: Growth inhibition of human TK10 cells assessed as cell growth at 10 uM incubated for 48 hrs by sulforhodamine B assay relative to control
- Assay type: functional
- condition_set: TK-10, 48 h, read-out: Activity
measured_endpoint: growth at 10 µM
Could you kindly put the unit after your number?

CCOC(=O)c1c(C)oc2ncnc(Nc3ccc(F)c(Cl)c3)c12	114%
CCOC(=O)c1c(C)oc2ncnc(Nc3ccc(OCc4cccc(C)c4)cc3)c12	94.7%
CCOC(=O)c1c(C)oc2ncnc(Nc3ccc(OCc4ccc(Cl)c(Cl)c4)cc3)c12	88.5%

API: the following record is the query input.
Looking for the measured growth at 10 µM of `CCOC(=O)c1c(C)oc2ncnc(Nc3ccc(F)cc3)c12` , can you help?
96.5%

----------
Each entry below carries its reported growth at 10 µM.
- System: SF-539
- assay: Growth inhibition of human SF539 cells assessed as cell growth at 10 uM incubated for 48 hrs by sulforhodamine B assay relative to control
- Format: functional
- condition_set: SF-539, 48 h, read-out: Activity
Write down the numeric answer in % and omit the unit.

Study these solved cases before continuing.
CCOC(=O)c1c(C)oc2ncnc(Nc3ccc(F)c(Cl)c3)c12	104
Cc1cccc(Nc2ncnc3oc(C)c(C(=O)NCCN4CCOCC4)c23)c1	95.4
CCOC(=O)c1c(C)oc2ncnc(Nc3ccc(OCc4cccc(C)c4)cc3)c12	95.4
CCOC(=O)c1c(C)oc2ncnc(Nc3ccc(OCc4ccc(Cl)c(Cl)c4)cc3)c12	98.4
CCOC(=O)c1c(C)oc2ncnc(Nc3ccc(OCc4ccc(Cl)cc4)cc3)c12	98.2
Cc1oc2ncnc(Nc3cccc(Cl)c3)c2c1CO	91.6
CCOC(=O)c1c(C)oc2ncnc(Nc3ccc(F)cc3)c12	93.6
Cc1oc2ncnc(Nc3ccccc3)c2c1C(=O)NCCO	88.6

Looking for the measured growth at 10 µM of `CCCNC(=O)c1c(C)oc2ncnc(Nc3cccc(Cl)c3)c12` , can you help?
99.1

Try the compound `CCOC(=O)c1c(C)oc2ncnc(Nc3ccc(OCc4cccc(F)c4)cc3)c12`
94.4

Try the compound `Cc1oc2ncnc(Nc3cccc(F)c3)c2c1C(=O)O`
92.5

----------
- Test system: A498
- assay: Growth inhibition of human A498 cells assessed as cell growth at 10 uM incubated for 48 hrs by sulforhodamine B assay relative to control
- Format: functional
- condition_set: A498, 48 h, read-out: Activity
Each entry below carries its reported growth at 10 µM.
Write down the numeric answer in % and omit the unit.

Cc1cccc(Nc2ncnc3oc(C)c(C(=O)NCCN4CCOCC4)c23)c1	68.9
Cc1oc2ncnc(Nc3ccc(OCc4cccc(F)c4)c(Cl)c3)c2c1C(=O)NCCO	81.6
CCOC(=O)c1c(C)oc2ncnc(Nc3ccc(F)cc3)c12	80.4
CCOC(=O)c1c(C)oc2ncnc(Nc3ccc(OCc4cccc(C)c4)cc3)c12	84.4
Cc1oc2ncnc(Nc3cccc(F)c3)c2c1C(=O)NCCO	83

API: the following record is the query input.
Looking for the measured growth at 10 µM of `CCOC(=O)c1c(C)oc2ncnc(Nc3ccc(OCc4ccc(Cl)cc4)cc3)c12` , can you help?
91.7

----------
- Test system: NCI-H226
- assay: Growth inhibition of human NCI-H226 cells assessed as cell growth at 10 uM incubated for 48 hrs by sulforhodamine B assay relative to control
- Format: functional
- condition_set: NCI-H226, 48 h, read-out: Activity
measured_endpoint: growth at 10 µM
Could you kindly put the unit after your number?

Study these solved cases before continuing.
Cc1oc2ncnc(Nc3cccc(F)c3)c2c1C(=O)O	109%
CCOC(=O)c1c(C)oc2ncnc(Nc3ccc(OCc4ccc(Cl)c(Cl)c4)cc3)c12	94.4%

Looking for the measured growth at 10 µM of `CCCNC(=O)c1c(C)oc2ncnc(Nc3cccc(Cl)c3)c12` , can you help?
90%

Try the compound `CCOC(=O)c1c(C)oc2ncnc(Nc3ccc(OCc4cccc(F)c4)cc3)c12`
87.6%

----------
- System: SW-620
- assay: Growth inhibition of human SW620 cells assessed as cell growth at 10 uM incubated for 48 hrs by sulforhodamine B assay relative to control
- Format: functional
- condition_set: SW-620, 48 h, read-out: Activity
Each entry below carries its reported growth at 10 µM.
Write down the numeric answer in % and omit the unit.

Study these solved cases before continuing.
CCOC(=O)c1c(C)oc2ncnc(Nc3ccc(OCc4cccc(C)c4)cc3)c12	101
Cc1oc2ncnc(Nc3cccc(F)c3)c2c1C(=O)O	101
CCOC(=O)c1c(C)oc2ncnc(Nc3ccc(OCc4ccc(Cl)cc4)cc3)c12	106
CCOC(=O)c1c(C)oc2ncnc(Nc3cccc(F)c3)c12	94.2
Cc1oc2ncnc(Nc3cccc(Cl)c3)c2c1CO	93.2

Looking for the measured growth at 10 µM of `Cc1cccc(Nc2ncnc3oc(C)c(C(=O)NCCN4CCOCC4)c23)c1` , can you help?
98.9

Try the molecule `Cc1oc2ncnc(Nc3cccc(F)c3)c2c1C(=O)NCCO`
103

Try the molecule `CCOC(=O)c1c(C)oc2ncnc(Nc3ccc(OCc4cccc(F)c4)cc3)c12`
88.9

Try the molecule `CCOC(=O)c1c(C)oc2ncnc(Nc3ccc(F)c(Cl)c3)c12`
101

Try the molecule `CCOC(=O)c1c(C)oc2ncnc(Nc3ccc(OCc4ccc(Cl)c(Cl)c4)cc3)c12`
105

Try the molecule `Cc1oc2ncnc(Nc3ccccc3)c2c1C(=O)NCCO`
95.1

----------
- measured_on: Epidermal growth factor receptor (Homo sapiens, UniProt P00533)
- Sequence (P00533 whole entry, the tested form may be a part): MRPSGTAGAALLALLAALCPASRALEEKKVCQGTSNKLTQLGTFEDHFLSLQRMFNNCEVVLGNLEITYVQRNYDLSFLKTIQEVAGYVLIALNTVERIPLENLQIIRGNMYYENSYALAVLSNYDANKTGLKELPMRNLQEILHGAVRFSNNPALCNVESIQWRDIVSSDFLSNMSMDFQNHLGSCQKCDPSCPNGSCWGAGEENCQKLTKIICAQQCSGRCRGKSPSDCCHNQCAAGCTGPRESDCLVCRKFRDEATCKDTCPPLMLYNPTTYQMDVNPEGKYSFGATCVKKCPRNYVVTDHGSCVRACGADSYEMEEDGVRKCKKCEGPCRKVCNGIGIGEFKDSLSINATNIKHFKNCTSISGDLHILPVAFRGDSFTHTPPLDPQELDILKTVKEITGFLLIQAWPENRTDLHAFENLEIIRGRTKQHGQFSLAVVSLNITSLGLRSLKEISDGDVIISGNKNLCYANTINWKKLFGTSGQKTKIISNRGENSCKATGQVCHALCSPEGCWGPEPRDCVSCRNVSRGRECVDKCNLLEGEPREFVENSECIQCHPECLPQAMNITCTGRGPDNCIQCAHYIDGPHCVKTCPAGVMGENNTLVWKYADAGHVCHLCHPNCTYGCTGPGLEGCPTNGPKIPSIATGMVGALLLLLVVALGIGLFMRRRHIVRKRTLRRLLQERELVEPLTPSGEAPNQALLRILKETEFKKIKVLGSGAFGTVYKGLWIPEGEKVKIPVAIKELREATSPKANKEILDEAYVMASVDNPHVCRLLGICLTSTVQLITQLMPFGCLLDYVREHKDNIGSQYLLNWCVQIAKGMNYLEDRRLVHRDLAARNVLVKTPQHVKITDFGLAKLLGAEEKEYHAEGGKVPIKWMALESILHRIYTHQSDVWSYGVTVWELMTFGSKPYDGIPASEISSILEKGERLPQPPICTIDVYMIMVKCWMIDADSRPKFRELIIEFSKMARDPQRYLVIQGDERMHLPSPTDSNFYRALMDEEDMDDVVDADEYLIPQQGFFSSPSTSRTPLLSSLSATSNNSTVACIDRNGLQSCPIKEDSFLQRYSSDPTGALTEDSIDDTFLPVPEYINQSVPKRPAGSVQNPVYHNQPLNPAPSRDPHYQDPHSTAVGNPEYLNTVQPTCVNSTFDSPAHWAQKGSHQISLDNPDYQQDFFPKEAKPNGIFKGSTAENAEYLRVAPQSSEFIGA
- assay: Inhibition of recombinant human C-terminal His/N-terminal GST-tagged EGFR (668 to 1210 residues) expressed in baculovirus infected Sf9 cells at 10 uM using biotin-labeled poly[Glu:Tyr] (4:1) as substrate after 30 mins by Kinase-Glo plus luminescence assay relative to control
measured_endpoint: inhibition (%)
Write down the numeric answer in % and omit the unit.

Study these solved cases before continuing.
CCOC(=O)c1c(C)oc2ncnc(Nc3ccc(OCc4ccccc4)cc3)c12	10
CCOC(=O)c1c(C)oc2ncnc(Nc3cccc(C)c3)c12	52
Cc1oc2ncnc(Nc3cccc(Cl)c3)c2c1CO	69

Looking for the measured inhibition of `Cc1oc2ncnc(Nc3cccc(Br)c3)c2c1C(=O)O` , can you help?
94

Try the molecule `CCOC(=O)c1c(C)oc2ncnc(Nc3ccc(OCc4ccc(Cl)cc4)cc3)c12`
6

Try the molecule `Cc1cccc(Nc2ncnc3oc(C)c(C(=O)NCCO)c23)c1`
36

----------
- Tested on: BT-549
- assay: Growth inhibition of human BT549 cells assessed as cell growth at 10 uM incubated for 48 hrs by sulforhodamine B assay relative to control
- Format: functional
- condition_set: BT-549, 48 h, read-out: Activity
measured_endpoint: growth at 10 µM (%)
Write down the numeric answer in % and omit the unit.

Study these solved cases before continuing.
Cc1oc2ncnc(Nc3cccc(F)c3)c2c1C(=O)O	93.9
Cc1oc2ncnc(Nc3cccc(F)c3)c2c1C(=O)NCCO	96.3
CCCNC(=O)c1c(C)oc2ncnc(Nc3cccc(Cl)c3)c12	102

Looking for the measured growth at 10 µM of `CCOC(=O)c1c(C)oc2ncnc(Nc3ccc(OCc4cccc(F)c4)cc3)c12` , can you help?
100

----------
- System: COLO 205
- assay: Growth inhibition of human COLO205 cells assessed as cell growth at 10 uM incubated for 48 hrs by sulforhodamine B assay relative to control
- Format: functional
- condition_set: COLO 205, 48 h, read-out: Activity
Each entry below carries its reported growth at 10 µM.
Write down the numeric answer in % and omit the unit.

CCOC(=O)c1c(C)oc2ncnc(Nc3cccc(F)c3)c12	104

Looking for the measured growth at 10 µM of `Cc1oc2ncnc(Nc3cccc(F)c3)c2c1C(=O)NCCO` , can you help?
111

Try the compound `Cc1oc2ncnc(Nc3ccccc3)c2c1C(=O)NCCO`
100

Try the compound `CCOC(=O)c1c(C)oc2ncnc(Nc3ccc(OCc4ccc(Cl)cc4)cc3)c12`
111

Try the compound `Cc1oc2ncnc(Nc3cccc(F)c3)c2c1C(=O)O`
109

Try the compound `CCOC(=O)c1c(C)oc2ncnc(Nc3ccc(OCc4cccc(C)c4)cc3)c12`
100

Try the compound `CCOC(=O)c1c(C)oc2ncnc(Nc3ccc(F)c(Cl)c3)c12`
110
